Each entry below carries its recorded pEC50.
- system: human TREM2 (Homo sapiens)
- Construct: expressed in transfected cells; host or cells: HEK293T
- measurement_protocol: TREM2 agonist potency by cellular Syk phosphorylation (AlphaLisa) in HEK293T-hTREM2 cells
- Assay type: cell-based
- settings: Table D-2; HEK293 cells expressing human TREM2 and DAP12; pSyk AlphaLisa
pEC50: −log10 of the molar value.
quantity_measured: pEC50

compound	observed_result
C[C@@H]1CN(c2nc(-c3ccc(C(F)(F)F)cc3F)c3c(n2)nc(N(C)C)n3C)C[C@H](c2cnn(C3CC3)c2)O1	≥ 7.30
CCN(C)c1nc2nc(N3C[C@@H](C)O[C@@H](c4cnn(C5CC5)c4)C3)nc(-c3ccc(Cl)cc3F)c2s1 (single isomer, unassigned)	5.52 to 6.30
Cc1cc(C2CN(c3nc(-c4ccc(C(F)(F)F)cc4F)c4sc(N(C)C)nc4n3)CCC2(F)F)ccn1 (racemic)	6.30 to 7.30
Cn1c(N2CCC2)nc2nc([C@H]3CCO[C@@H](c4cnn(C5CC5)c4)C3)nc(-c3ccc(F)cc3F)c21	6.30 to 7.30
Fc1cc(C(F)(F)F)ccc1-c1nc([C@@H]2CCO[C@@H](c3cnn(C4CC4)c3)C2)nc2nc(C3CC3)sc12 (single isomer, unassigned)	5.52 to 6.30
C[C@@H]1CN(c2nc(-c3cc(F)c(F)cc3F)c3sc(N(C)C)nc3n2)C[C@H](c2cnn(C3CC3)c2)O1	≥ 7.30

---

- system: human TREM2 (Homo sapiens)
- Construct: expressed in transfected cells; host or cells: HEK293T
- measurement_protocol: TREM2 agonist potency by cellular Syk phosphorylation (AlphaLisa) in HEK293T-hTREM2 cells
- Type: cell-based
- settings: Table D-2; HEK293 cells expressing human TREM2 and DAP12; pSyk AlphaLisa
quantity_measured: EC50

compound	system	observed_result
Cc1cc([C@H]2C[C@H](c3nc(-c4ccc(F)cc4F)c4sc(N(C)C)nc4n3)CCO2)ccn1	human TREM2 (Homo sapiens)	0.05 to 0.5 µM
CN(C)c1nc2nc(C3CCO[C@@H](c4cnn(C5CC5)c4)C3)nc(Oc3ccccc3)c2s1 (stereo partly drawn)	human TREM2 (Homo sapiens)	0.5 to 3 µM
CN(C)c1nc2nc([C@H]3CCO[C@@H](c4cnn(C5CC5)c4)C3)nc(-c3ccc(C(F)(F)F)cc3F)c2s1 (single isomer, unassigned)	human TREM2 (Homo sapiens)	0.05 to 0.5 µM
Cc1nc2nc([C@@H]3CCO[C@@H](c4cnn(C5CC5)c4)C3)nc(-c3ccc(F)cc3F)c2s1	human TREM2 (Homo sapiens)	0.5 to 3 µM
C[C@@H]1CN(c2nc(-c3ccc(F)cc3F)c3sc(N(C)C)nc3n2)C[C@H](c2cnn(C3CC3)c2)O1 (single isomer, unassigned)	human TREM2 (Homo sapiens)	≤ 0.05 µM
Fc1cc(C(F)(F)F)ccc1-c1nc([C@H]2CCO[C@@H](c3cnn(C4CC4)c3)C2)nc2nc(N3CCC3)sc12 (single isomer, unassigned)	human TREM2 (Homo sapiens)	≤ 0.05 µM

---

Each entry below carries its recorded pEC50.
- system: human TREM2 (Homo sapiens, UniProt Q9NZC2)
- Construct: expressed in transfected cells; host or cells: HEK293T
- Sequence (Q9NZC2 19-230): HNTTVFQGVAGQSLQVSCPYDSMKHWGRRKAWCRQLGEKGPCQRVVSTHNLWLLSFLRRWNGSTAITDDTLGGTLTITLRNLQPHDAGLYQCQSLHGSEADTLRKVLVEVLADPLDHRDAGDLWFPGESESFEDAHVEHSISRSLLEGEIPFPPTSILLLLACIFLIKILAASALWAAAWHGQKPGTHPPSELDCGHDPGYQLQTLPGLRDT
- Sequence (O43914 22-113 partner): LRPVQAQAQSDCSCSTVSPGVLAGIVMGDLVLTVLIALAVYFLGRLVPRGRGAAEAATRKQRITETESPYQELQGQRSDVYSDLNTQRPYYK
- measurement_protocol: TREM2 agonist potency by cellular Syk phosphorylation (AlphaLisa) in HEK293T-hTREM2 cells
- Assay type: cell-based
- settings: Table D-2; HEK293 cells expressing human TREM2 and DAP12; pSyk AlphaLisa
pEC50: −log10 of the molar value.
quantity_measured: pEC50

compound	observed_result
CN(C)c1nc2nc([C@@H]3CCO[C@@H](c4cnn(C5CC5)c4)C3)nc(C3CCCCC3)c2s1 (single isomer, unassigned) [Compound I-205]	5.52 to 6.30
C[C@@H]1CN(c2nc(-c3ccc(F)cc3F)c3c(n2)nc(N2CCC2)n3C)C[C@H](c2cnn(C3CC3)c2)O1 [Compound I-191]	6.30 to 7.30
Fc1cc(C(F)(F)F)ccc1-c1nc([C@@H]2CCO[C@@H](c3cnn(C4CC4)c3)C2)nc2nc(N3CCC3)sc12 (single isomer, unassigned) [Compound I-248]	6.30 to 7.30
Cc1cc([C@H]2CN(c3nc(-c4ccc(C(F)(F)F)cc4F)c4sc(N(C)C)nc4n3)C[C@@H](C)O2)ccn1 [Compound I-263]	6.30 to 7.30
C[C@@H]1CN(c2nc(-c3ccc(F)cc3F)c3sc(N(C)C)nc3n2)C[C@H](c2cnn(C(F)F)c2)O1 [Compound I-235]	≥ 7.30
CC(C)n1ncc2c(-c3ccc(F)cc3F)nc(N3C[C@@H](C)O[C@@H](c4cnn(C5CC5)c4)C3)nc21 [Compound I-139]	5.52 to 6.30
